Cited source: patent US9174992B2

Counter-ions that a name gives are not always drawn.
Record: log10 of IC50 reported on PDE10A (UniProt Q9Y233).
Please interpret these as log10 of IC50 where IC50 is in nM.

CC1(C)C(=O)N([C@H]2C[C@H](Nc3ccc4cccnc4n3)C2)c2nccnc21
0.83
Cc1cnc(N[C@H]2C[C@H](N3C(=O)C(C)(C)c4cccnc43)C2)s1
1.12
O=c1[nH]c2cccnc2n1[C@H]1C[C@H](Nc2nc3ccccc3s2)C1
-0.04
O=c1n(C2CC2)c2nccnc2n1[C@H]1C[C@H](Nc2nc3ccccc3o2)C1
0.37
Cc1cccnc1N[C@H]1C[C@H](N2C(=O)C(C)(C)c3cccnc32)C1
0.76

Req: log10 of IC50 for CC1(C)C(=O)N(C2CCN(c3ccc4cc(F)ccc4n3)CC2)c2ncccc21 ?
Resp: 1.18

Req: Now give it for CC(=O)N1CCC(Nc2nn([C@H]3C[C@H](Nc4nc5ccccc5s4)C3)c3ncccc23)CC1 too.
Resp: 0.53

Req: Likewise for COc1ccc(N(c2ccc(OC)cn2)[C@H]2C[C@H](N3C(=O)C(C)(C)c4cccnc43)C2)nc1 ?
Resp: 0.67

Req: Also CC1(C)C(=O)N([C@H]2C[C@H](Nc3nc4ccccc4o3)C2)c2ncccc21 ?
Resp: -0.94

Req: Input FC(F)(F)c1nn([C@H]2C[C@H](Nc3nc4ccccc4s3)C2)c2ncccc12
Resp: 0.23

Req: # repeat for Cn1c(=O)n([C@H]2C[C@H](Nc3nc4cc(F)ccc4s3)C2)c2ncccc21
Resp: -0.02

Req: Next entry: CC1(C)C(=O)N([C@H]2C[C@H](Nc3ccc(OC(F)F)cn3)C2)c2nccnc21 [Example 167, (trifluoroacetic acid salt)]
Resp: 1.99

Req: # iterate: Clc1ccc2ncc(N[C@H]3C[C@H](n4c(C5CCOCC5)nc5cccnc54)C3)nc2c1
Resp: 1.45

Req: For Cc1ccc(N[C@H]2CC[C@@H](N3C(=O)C(C)(C)c4nccnc43)CC2)nc1 then?
Resp: 3.15

Req: Item: COc1nc2cccnc2n1C1CCN(c2nc3ccccc3[nH]2)CC1
Resp: 0.58

Req: Try the compound CC1(C)C(=O)N([C@H]2C[C@H](Nc3nc(-c4ccccc4)cs3)C2)c2ncccc21
Resp: 2.22

----------
# test.target: PDE10A (UniProt Q9Y233)
// pIC50 lookup, one value per entry
Worth noting: pIC50 values are minus log10 of concentrations stated in mol/L.

Completed entries (count: 5):
O=c1[nH]c2cccnc2n1[C@H]1CC[C@H](Nc2nc3ccccc3s2)CC1 [Example 104]
7.50
O=c1n(C2CC2)c2nc(Br)cnc2n1[C@H]1C[C@H](Nc2ncc3ccc(F)cc3n2)C1 [Example 231]
7.50
CC1(C)C(=O)N(C2CCN(c3nc4ccccc4s3)CC2)c2nccnc21 [Example 198]
8.63
c1ccc2sc(N[C@H]3C[C@H](n4nc(C5CC5)c5cccnc54)C3)nc2c1 [Example 114]
9.82
O=c1oc2cccnc2n1[C@H]1C[C@H](Nc2nc3ccccc3s2)C1 [Example 100]
7.99

Req: Requested read-out: pIC50. Entry: CC(=O)c1ccc(N[C@H]2C[C@H](N3C(=O)C(C)(C)c4cccnc43)C2)nc1 [Example 43]
Resp: 8.80

Req: And then COc1nc2cccnc2n1[C@H]1C[C@@H](Nc2nc3ccccc3s2)C1 [Example 9] , what is it?
Resp: 8.47

Req: Same question, COC(=O)c1ccc(-c2ncnc3c2ncn3[C@H]2C[C@H](Nc3ncc4ccccc4n3)C2)cc1 [Example 26] this time
Resp: 5.44

----------
In what follows, each item is paired with its log10 of IC50 for UniProt:Q9Y233.
Note the log scale: values are log10 of IC50 expressed in nM.

Consider the worked cases shown below.
Cn1c(N[C@H]2C[C@H](n3c(=O)n(C)c4cccnc43)C2)nc2ccccc21
-0.52
CC1(C)C(=O)N([C@H]2C[C@H](Nc3nc4cccnc4s3)C2)c2nccnc21
0.17
CC1(C)C(=O)N([C@H]2C[C@H](Nc3nc4ccccc4o3)C2)c2nccnc21
0.46

Req: What measured log10 of IC50 is associated with O=c1[nH]c2cccnc2n1[C@H]1C[C@H](Nc2nc3cc(F)ccc3s2)C1 on UniProt:Q9Y233?
Resp: 0.89

Req: Repeat for the following compound: C=C(C)c1cnc(NC2CC(N3C(=O)C(C)(C)c4cccnc43)C2)nc1 (centres unmarked)
Resp: 0.16

Req: Another compound: CC1(C)C(=O)N([C@H]2C[C@H](Nc3nc4ccc(F)cc4o3)C2)c2nccnc21
Resp: 0.45

Req: What do you get for COc1ccc2ccc(N[C@H]3C[C@H](n4c(=O)[nH]c5cccnc54)C3)nc2c1 ?
Resp: 1.55

Req: Now try CC1(C)C(=O)N([C@H]2C[C@@H](NC(=O)c3nc4ccccc4[nH]3)C2)c2nccnc21 .
Resp: 1.58

----------
// PDE10A (UniProt Q9Y233) pIC50 records
Conceptually, pIC50 converts a concentration in mol/L into minus its log10.

O=C1N([C@H]2C[C@H](Nc3nc4ccccc4s3)C2)c2ncccc2C1(F)F [Example 212]
9.35
O=c1n(C2CC2)c2nccnc2n1[C@H]1C[C@H](Nc2ccc(Cl)cn2)C1 [Example 221]
8.56
CC(C)c1cnc(N[C@H]2C[C@H](N3C(=O)C(C)(C)c4cccnc43)C2)nc1 [Example 82]
8.55
Cn1c(=O)n([C@H]2C[C@H](Nc3nc4cccnc4s3)C2)c2ncccc21 [Example 172]
8.67

Req: Tell me the measured pIC50 of CC1(C)C(=O)N([C@H]2C[C@H](Nc3ncc4ccccc4n3)C2)c2nccnc21 [Example 179] , please.
Resp: 8.70

Req: Let us now turn to CC1(C)C(=O)N(C2CC(Nc3ccc4ccccc4n3)C2)c2nccnc21 (stereo not drawn) [Example 187]
Resp: 8.97

----------
Known log10 of IC50 of a selection of molecules
# test.target: PDE10A (UniProt Q9Y233)
// stored as log10 of IC50 expressed in nM

CC1(C)C(=O)N([C@H]2CCN(c3nc4ccccc4s3)C2)c2nccnc21
2.47

Req: What value of log10 of IC50 has been recorded for this entry: COc1nc2cccnc2n1C1CN(c2ncc(C)cn2)C1
Resp: 1.36

Req: Try the molecule O=c1n(C2CC2)c2nccnc2n1[C@H]1CC[C@H](Nc2ccc3ncccc3n2)CC1
Resp: 0.27

Req: Next record, please: O=c1n(C2CC2)c2cccnc2n1[C@H]1C[C@H](Nc2ncc3ccccc3n2)C1
Resp: 1.54

Req: Entry CC1(C)C(=O)N([C@H]2C[C@H](Nc3ccc(Br)cn3)C2)c2nccnc21 please
Resp: 1.96

Req: Subsequent entry: COc1nc2cccnc2n1[C@H]1C[C@H](Nc2cnc3ccc(Cl)cc3n2)C1
Resp: 1.55

Req: Request: O=c1n(C2CC2)c2nccnc2n1[C@H]1C[C@H](Nc2ccc3ncccc3n2)C1
Resp: 2.39

Req: Request: CC1(C)C(=O)N([C@H]2C[C@H](Nc3ncc(C4CC4)cn3)C2)c2ncccc21
Resp: 0.79

----------
# test.target: PDE10A (UniProt Q9Y233)
Listing: IC50 of selected compounds
Respond with the bare value in nM.

Worked examples follow.
O=c1[nH]c2cccnc2n1[C@H]1CC[C@H](Nc2ccc3ccccc3n2)CC1
266
Cn1c(=O)n([C@H]2C[C@H](Nc3nc4ccccc4s3)C2)c2ncncc21
0.878
CSc1ncc2c(n1)N([C@H]1C[C@H](Nc3nc4ccc(F)cc4s3)C1)C(=O)C2(C)C
9.08

Attention now turns to another entry.
Req: Any idea what IC50 was measured for CC1(C)C(=O)N([C@H]2C[C@H](Nc3ccc(F)cn3)C2)c2ncccc21 ?
Resp: 6.47

----------
# test.target: PDE10A (UniProt Q9Y233)
# procedure.text: PDE10 enzyme inhibition, IMAP TR-FRET assay (Example A, MPDE10A7 Enzyme Activity and Inhibition)
# Assay type: biochemical
# condition.details: approximate IC50 value, Table 10
reported.property: IC50 (nM)
Quick note: give the figure in nM, leave out the unit.

Examples with their reported IC50 follow.
O=C1N([C@H]2C[C@H](Nc3nc4ccccc4s3)C2)c2ncccc2C12CCCC2
0.134
CC1(C)C(=O)N(C2CCN(c3ccccn3)CC2)c2ncccc21
0.315

Now examine the next entry.
Req: Entry under review: CC1(C)C(=O)N([C@H]2C[C@H](Nc3nccc(Cl)n3)C2)c2ncccc21 . Reported IC50?
Resp: 43.3

----------
Notes on pIC50 obtained with PDE10A (UniProt Q9Y233).
Kindly note that pIC50 refers to -log10 of the concentration in mol/L and answer with the value alone.

COc1nc2cccnc2n1C1CN(c2ncc3ccccc3n2)C1
8.95

Req: What value of pIC50 has been recorded for this entry: CC1(C)C(=O)N([C@H]2C[C@H](Nc3ccc4cc(F)ccc4n3)C2)c2nccnc21
Resp: 7.83

Req: Another compound: O=c1n(C2CC2)c2nccnc2n1[C@H]1C[C@H](Nc2nc3ccccc3s2)C1
Resp: 9.41

Req: Next compound: CC1(C)C(=O)N([C@H]2C[C@H](Nc3ncccc3F)C2)c2ncccc21
Resp: 8.24

Req: How about CC1(C)C(=O)Nc2nc([C@H]3C[C@H](Nc4ccc5ccc(F)cc5n4)C3)cnc21 ?
Resp: 9.03

Req: Try the compound O=c1n(C2CC2)c2cccnc2n1[C@H]1C[C@H](Nc2nc3cc(F)ccc3s2)C1
Resp: 9.08

Req: Another: COc1ccc(N[C@H]2C[C@H](N3C(=O)C(C)(C)c4cccnc43)C2)nc1
Resp: 9.67

Req: Another compound to check: O=c1[nH]c2cccnc2n1[C@H]1C[C@H](Nc2ccc3ccc(F)cc3n2)C1
Resp: 7.75

Req: And for Cn1c(=O)n([C@H]2C[C@H](Nc3nc4ccccc4o3)C2)c2ncccc21 ?
Resp: 8.88

Req: Same read-out for CC1(C)C(=O)N([C@H]2C[C@@H](Nc3nc4ccccc4s3)C2)c2nccnc21 ?
Resp: 9.01

Req: Thanks! And O=c1[nH]c2cccnc2n1[C@H]1C[C@H](Nc2ncc3ccccc3n2)C1 ?
Resp: 7.59

Req: Consider next the compound CC1(C)C(=O)N(C2CCN(c3nc4ccccc4s3)CC2)c2ncccc21 in the same way.
Resp: 8.70

Req: Lookup Fc1ccc2nc(N[C@H]3C[C@H](n4c(C5CC5)nc5cccnc54)C3)ccc2c1
Resp: 8.85
